Test system: biotinyl-Leu-oxazolone
Experiment: self-aminoacylation, catalytic enhancement (BLO) (fold over background); higher = more active; k-Seq, kA / k0A0; sequences stand for … in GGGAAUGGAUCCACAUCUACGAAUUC…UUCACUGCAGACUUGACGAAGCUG
Variants at the floor of the assay were thinned out.
reported property: self-aminoacylation

> print(dat)
                               sequence.text  measured
 1  CCACACUUCAAGCAAUUGGUC [Fam1B.1 aminoacylation ribozyme variant]     0.594
 2  CCACACUUCAAGACAUCGGUC [Fam1B.1 aminoacylation ribozyme variant]     0.879
 3  CCACACUUCAAGCAAACGAUC [Fam1B.1 aminoacylation ribozyme variant]     0.422
 4  CCACACAUCAAGCAACCGGUC [Fam1B.1 aminoacylation ribozyme variant]     0.817
 5  UUCACCCUGGUCAUCGAGUGA [Fam2.1 aminoacylation ribozyme variant]      10.6
 6  CUUCACCUAGGUCAUGGGGUG [Fam2.2 aminoacylation ribozyme variant]      4.06
 7  CUACUUCUAACAAUCGGUGUG [Fam1A.1 aminoacylation ribozyme variant]     0.907
 8  CUACACUUCAAGCAAUCGGUA [Fam1B.1 aminoacylation ribozyme variant]     0.755
 9  AUUCACCUACGUCAGCGGGUG [Fam2.2 aminoacylation ribozyme variant]      6.17
10  AUACACCUAGGUCGUCGGGUG [Fam2.2 aminoacylation ribozyme variant]      2.55
11  CUAUUUCAAACAAUCGGUGUG [Fam1A.1 aminoacylation ribozyme variant]     0.992
12  CUACUUCACACAAUCUGUCUG [Fam1A.1 aminoacylation ribozyme variant]     0.573
13  CUACUUCAAAGAAUCGGUCGG [Fam1A.1 aminoacylation ribozyme variant]      1.05
14  CCACACUUGAAGCGAUCGGUC [Fam1B.1 aminoacylation ribozyme variant]     0.996
15  AAGUUUGGCAAUAGUCGCAAG [Fam3.1 aminoacylation ribozyme variant]       1.4
16  AUUCACCUAGCUCAUCGGGCG [Fam2.2 aminoacylation ribozyme variant]      2.33
17  AUUCAGCUAGGUCAUCGGGAG [Fam2.2 aminoacylation ribozyme variant]      1.69
18  CUACUUCAAACAGUCGGUAUG [Fam1A.1 aminoacylation ribozyme variant]     0.532
19  AAGUAUGCUAAUAGCCGCAAG [Fam3.1 aminoacylation ribozyme variant]      1.16
20  AUUACCCUGGUUAUCGUGUGA [Fam2.1 aminoacylation ribozyme variant]       2.3
21  AAGUUUCCUAAUAUUCGCAAG [Fam3.1 aminoacylation ribozyme variant]     0.935
22  UUACUUCAAACAAUUGGUCUG [Fam1A.1 aminoacylation ribozyme variant]      1.14
23  AUUGACCUAGGUCAUCGGGUA [Fam2.2 aminoacylation ribozyme variant]      59.5
24  AUUACCCUUGUCAUCGAGUCA [Fam2.1 aminoacylation ribozyme variant]     0.708
25  AAGUUAGCUAAUGGUCGCAAG [Fam3.1 aminoacylation ribozyme variant]      1.17
26  AAGAUUGCUAAAAGUCGCAAG [Fam3.1 aminoacylation ribozyme variant]      1.76
27  GAGUUUGCUUAUAGUCGCAAG [Fam3.1 aminoacylation ribozyme variant]      1.24
28  AUUACCCUGGUCAGCGGGUGA [Fam2.1 aminoacylation ribozyme variant]      10.1
29  CCUCACUUCAAACAAUCGGUC [Fam1B.1 aminoacylation ribozyme variant]      2.35
30  CCAGAGUUCAAGCAAUCGGUC [Fam1B.1 aminoacylation ribozyme variant]      1.36
31  AUUCGCCUAAGUCAUCGGGUG [Fam2.2 aminoacylation ribozyme variant]      15.6
32  AAGUUUGCUAAUAAUCGCAAC [Fam3.1 aminoacylation ribozyme variant]     0.773
33  AUUCACCAAGGUGAUCGGGUG [Fam2.2 aminoacylation ribozyme variant]      4.13
34  AUUACCCCGGUCAACGAGUGA [Fam2.1 aminoacylation ribozyme variant]      4.74
35  AAGUGUGCUAAUUGUCGCAAG [Fam3.1 aminoacylation ribozyme variant]      1.51
